- Tested on: morphine antibodies
- MEASUREMENT_PROTOCOL: homogeneous enzyme immunoassay with morphine conjugate to lysozyme, cross-reactivity
- CONDITION_CONTEXT: compound concentration 300 μg/ml
Item-by-item account of Percent max. rate
Write it as a number; the unit % goes unstated.

Solved entries:
COMPOUND: CCC(=O)O[C@](Cc1ccccc1)(c1ccccc1)[C@H](C)CN(C)C [Darvon]
UNIT_NAME: %
Percent max. rate: 4
--
COMPOUND: COC(=O)[C@H]1[C@@H](OC(=O)c2ccccc2)C[C@@H]2CC[C@H]1N2C [Cocaine]
UNIT_NAME: %
Percent max. rate: 2
--
COMPOUND: CC(C)=CCN1CCC2(C)c3cc(O)ccc3CC1C2C (stereo not shown) [Pentazocine]
UNIT_NAME: %
Percent max. rate: 3

Query :: Give its Percent max. rate value. Item: CCC1(c2ccccc2)C(=O)NC(=O)NC1=O [Phenobarbital]
Result :: 0

---

- System: methadone antibody
- MEASUREMENT_PROTOCOL: methadone lysozyme conjugate enzyme immunoassay (sensitivity, cross-reactivity)
- CONDITION_CONTEXT: relative to methadone at 0.5μg/ml; ratio of concentrations giving the same optical density reading
READOUT: Relative Reactivity
Reply: number alone, nothing else.

Solved entries:
COMPOUND: CCC(=O)C(CC(C)N(C)C)(c1ccccc1)c1ccccc1 (centres unmarked)
Relative Reactivity: 1

COMPOUND: CCC(=O)O[C@](Cc1ccccc1)(c1ccccc1)[C@H](C)CN(C)C
Relative Reactivity: 0.00089

COMPOUND: CC(CN1c2ccccc2Sc2ccccc21)N(C)C (centres unmarked)
Relative Reactivity: 0.0125

COMPOUND: COc1ccc2c(c1)[C@]13CCCC[C@@H]1[C@H](C2)N(C)CC3
Relative Reactivity: 0.0042

Here is the next item to consider.
Query :: Give its Relative Reactivity value. Item: CN(C)CCCN1c2ccccc2Sc2ccc(Cl)cc21
Result :: 0.011

---

- Tested on: amphetamine antibody
- MEASUREMENT_PROTOCOL: amphetamine lysozyme conjugate enzyme immunoassay, cross-reactivity
- Type: binding
- CONDITION_CONTEXT: related to 1μg/ml amphetamine; 50μl of urine
Kind request: treat 0.3 as inclusive, so Relative Reactivity at 0.3 or higher is t, anything lower is f.

COMPOUND: CC(COc1ccccc1)NC(C)C(O)c1ccc(O)cc1 (stereo not drawn)
CLASSIFICATION: f

COMPOUND: CC(C)(N)Cc1ccccc1
CLASSIFICATION: t

COMPOUND: CN[C@@H](C)[C@H](O)c1ccccc1
CLASSIFICATION: f

COMPOUND: CNC(C)(C)Cc1ccccc1
CLASSIFICATION: t

COMPOUND: CN[C@@H](C)Cc1ccccc1
CLASSIFICATION: t

COMPOUND: CC(N)C(O)c1ccccc1 (stereo not drawn)
CLASSIFICATION: t

Query :: Record CNC(C)CC1CCCCC1 (stereo not drawn) ; criterion: Relative Reactivity no lower than 0.3. Met?
Result :: f

Query :: Let us now turn to NCCc1ccccc1
Result :: f

Query :: Let us now turn to CC(N)Cc1ccccc1 (stereo not drawn)
Result :: t

Query :: Let us now turn to CC(N)Cc1ccc(O)cc1 (stereo not drawn) [p-Hydroxyamphetamine]
Result :: f

Query :: Let us now turn to CC(CCc1ccccc1)NC(C)C(O)c1ccc(O)cc1 (stereo not drawn)
Result :: f

Query :: Let us now turn to CNC(C)CC1CCCC1 (stereo not drawn)
Result :: t
